System Name: human GABA A receptor α5β3γ2 (α5 subunit) (Homo sapiens, UniProt P18507+P31644)
Sequence (P31644 32-462): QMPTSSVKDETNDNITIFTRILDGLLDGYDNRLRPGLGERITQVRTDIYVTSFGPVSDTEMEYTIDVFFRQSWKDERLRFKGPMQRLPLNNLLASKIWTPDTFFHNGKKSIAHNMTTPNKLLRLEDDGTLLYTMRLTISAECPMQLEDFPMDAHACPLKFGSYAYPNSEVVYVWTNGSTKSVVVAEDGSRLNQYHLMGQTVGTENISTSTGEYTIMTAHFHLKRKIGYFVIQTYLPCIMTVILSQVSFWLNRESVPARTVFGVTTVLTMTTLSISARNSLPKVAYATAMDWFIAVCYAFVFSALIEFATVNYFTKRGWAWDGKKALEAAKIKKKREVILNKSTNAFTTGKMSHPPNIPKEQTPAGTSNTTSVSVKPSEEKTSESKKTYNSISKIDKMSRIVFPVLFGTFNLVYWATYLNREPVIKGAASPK
Sequence (P28472 26-473 partner): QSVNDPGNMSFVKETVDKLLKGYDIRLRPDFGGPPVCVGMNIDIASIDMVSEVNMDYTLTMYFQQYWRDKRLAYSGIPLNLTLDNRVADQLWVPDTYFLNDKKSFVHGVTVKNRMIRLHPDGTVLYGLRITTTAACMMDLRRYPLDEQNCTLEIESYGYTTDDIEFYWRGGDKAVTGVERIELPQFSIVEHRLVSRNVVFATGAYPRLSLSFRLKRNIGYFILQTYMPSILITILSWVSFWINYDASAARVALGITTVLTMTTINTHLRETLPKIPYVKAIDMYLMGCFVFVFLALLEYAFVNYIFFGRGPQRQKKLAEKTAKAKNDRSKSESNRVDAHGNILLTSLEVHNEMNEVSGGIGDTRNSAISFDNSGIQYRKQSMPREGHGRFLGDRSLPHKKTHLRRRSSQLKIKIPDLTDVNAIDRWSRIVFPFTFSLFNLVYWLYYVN
Sequence (P18507 40-475): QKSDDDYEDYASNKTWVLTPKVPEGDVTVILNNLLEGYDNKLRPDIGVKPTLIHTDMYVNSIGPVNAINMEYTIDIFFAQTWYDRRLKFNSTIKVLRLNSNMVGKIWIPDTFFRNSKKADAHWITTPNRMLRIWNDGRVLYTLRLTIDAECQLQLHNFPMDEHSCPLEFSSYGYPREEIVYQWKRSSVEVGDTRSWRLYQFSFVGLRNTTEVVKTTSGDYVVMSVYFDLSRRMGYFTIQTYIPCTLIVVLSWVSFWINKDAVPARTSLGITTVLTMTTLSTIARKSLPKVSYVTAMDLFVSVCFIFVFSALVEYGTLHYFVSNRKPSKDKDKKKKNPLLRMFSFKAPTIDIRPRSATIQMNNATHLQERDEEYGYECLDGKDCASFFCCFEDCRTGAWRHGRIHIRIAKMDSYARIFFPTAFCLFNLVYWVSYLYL
Assay Info: biochemical
Format: binding
Cond: competition for [3H]flumazenil binding, HEK293 cells transiently expressing human receptors; means of two determinations; read-out: hKi
Where a name gives a salt, the structure may show the parent alone.
Below: a set of entries, each annotated with reported Ki.

Compound: CNC(=O)c1ccc(OCc2c(-c3ccccn3)noc2C)nn1
Ki / nM: 0.9

Compound: CCOC(=O)c1ccc(OCc2c(-c3ccc(F)cc3)noc2C)nn1
Ki / nM: 3.3

Compound: Cc1onc(-c2ccccn2)c1COc1ccc(C(=O)NCC2CC2)nn1
Ki / nM: 4.1

Compound: Cc1onc(-c2cccc(F)c2)c1CNc1ccc(C(=O)NCC(F)(F)F)nn1
Ki / nM: 28.9

Compound: Cc1onc(-c2ccccc2)c1COc1ccc(C(=O)NCCO)nn1
Ki / nM: 3.4

Compound: Cc1onc(-c2ccc(Cl)cn2)c1COc1ccc(C(=O)O)nn1
Ki / nM: 2.1

Compound: Cc1onc(-c2ccc(F)cc2)c1COc1ccc2nncn2n1
Ki / nM: 7.5

Compound: Cc1onc(-c2ccncn2)c1COc1ccc(C(=O)NC(C)(C)CO)nn1
Ki / nM: 14.8

Compound: Cc1onc(-c2ccccc2)c1COc1ccc(N)nn1
Ki / nM: 4.1

Compound: Cc1onc(-c2ccccn2)c1COc1ccc(C(=O)NC(C)C)nn1
Ki / nM: 2.7

Compound: Cc1onc(-c2ccccc2)c1COc1ccc(C(=O)NC2CC2)nn1
Ki / nM: 3.5

Compound: Cc1onc(-c2ccccn2)c1COc1ccc(C(=O)NC2CC2)nn1
Ki / nM: 1.6

Compound: COCCNC(=O)c1ccc(OCc2c(-c3ccccn3)noc2C)nn1
Ki / nM: 1.6

Compound: Cc1onc(-c2ccccc2)c1COc1ccc(N2CCOCC2)nn1
Ki / nM: 9.4

Compound: Cc1onc(-c2ccccn2)c1COc1ccc(C(=O)NC(C)(C)CO)nn1
Ki / nM: 4

Compound: CNC(=O)c1ccc(OCc2c(-c3ccncc3)noc2C)nn1
Ki / nM: 9

Compound: CC(=O)Nc1ccc(OCc2c(-c3ccccc3)noc2C)nn1
Ki / nM: 3.9

Compound: COC(=O)C(=O)Nc1ccc(OCc2c(-c3ccccc3)noc2C)nn1
Ki / nM: 5.1

Compound: O=C(NC1CCOCC1)c1ccc(OCc2conc2-c2ccc(F)cc2)nn1
Ki / nM: 34.7

Compound: O=C(NC1CC1)c1ccc(OCc2conc2-c2ccccn2)nn1
Ki / nM: 31.5

Compound: Cc1onc(-c2ccccn2)c1COc1ccc(C(=O)N2CCSCC2)nn1
Ki / nM: 27.8

Compound: Cc1onc(-c2ccc(Cl)cn2)c1CNc1ccc(C(=O)NC(C)(C)CO)nn1
Ki / nM: 7.3

Compound: CCNC(=O)c1ccc(OCc2c(-c3ccccn3)noc2C)nn1
Ki / nM: 1.5

Compound: CCOC(=O)c1nnc(OCc2c(-c3ccccc3)noc2C)cc1C
Ki / nM: 1.9

Compound: Cc1onc(-c2cccc(F)c2)c1COc1ccc(C(=O)NC(C)C)nn1
Ki / nM: 8.4

Compound: Cc1onc(-c2ccc(F)cc2)c1COc1ccc(C(=O)NC2CCOCC2)nn1
Ki / nM: 2.4

Compound: Cc1onc(-c2ccccc2)c1COc1ccc(C(=O)NC(C)(C)CO)nn1
Ki / nM: 7.7

Compound: Cc1onc(-c2ccncc2)c1COc1ccc(C(=O)NCCO)nn1
Ki / nM: 23.3

Compound: Cc1onc(-c2ccccc2)c1COc1ccc(NC(=O)c2ccccc2)nn1
Ki / nM: 13.7

Compound: Cc1onc(-c2ccncn2)c1COc1ccc(C(=O)NCCO)nn1
Ki / nM: 4.7

Compound: Cc1onc(-c2ccccn2)c1COc1ccc(C(=O)NCC(F)(F)F)nn1
Ki / nM: 2.8

Compound: Cc1onc(-c2ccc(F)cc2)c1COc1ccc(C(=O)NCC(F)(F)F)nn1
Ki / nM: 3.5

Compound: COCCNC(=O)c1ccc(OCc2c(-c3ccccc3)noc2C)nn1
Ki / nM: 5.4

Compound: Cc1onc(-c2ccccc2)c1COc1ccc(NC(=O)c2ccno2)nn1
Ki / nM: 5.4

Compound: Cc1cc(OCc2c(-c3ccccc3)noc2C)nnc1C(=O)NC1CCOCC1
Ki / nM: 3.4

Compound: Cc1onc(-c2ccccn2)c1COc1ccc(C(=O)NCCO)nn1
Ki / nM: 1.4

Compound: Cc1cc(OCc2c(-c3ccccc3)noc2C)nnc1C(=O)NC(C)C
Ki / nM: 3.6

Compound: CNc1ccc(OCc2c(-c3ccccc3)noc2C)nn1 [Example 37, HCl]
Ki / nM: 6.3

====

System Name: human GABA A receptor α5β3γ2 (α5 subunit) (Homo sapiens, UniProt P18507+P31644)
Assay Info: biochemical
Type: binding

Smiles: Cc1onc(-c2ccccn2)c1COc1ccc(C(=O)N2CCOCC2)nn1
Ki: 25.9 nM

====

System Name: human GABA A receptor α5β3γ2 (α5 subunit) (Homo sapiens, UniProt P18507+P31644)
Assay Info: biochemical
Assay type: binding
Cond: competition for [3H]flumazenil binding, HEK293 cells transiently expressing human receptors; means of two determinations; read-out: hKi
Method: The affinity of compounds at GABA A receptor subtypes was measured by competition for [3H]flumazenil (85 Ci/mmol; Roche) binding to HEK293 cells expressing rat (stably transfected) or human (transiently transfected) receptors of composition α1β3γ2, α2β3γ2, α3β3γ2 and α5β3γ2. […]
Attribute Measured: Ki (nM)

Compound: Cc1onc(-c2ccccc2)c1COc1ccc(C(=O)NC(C)C)nn1 [Example 7]
Measured Result: 5.9
//
Compound: CCOC(=O)c1ccc(OCc2c(-c3ccccc3)noc2C)nn1 [Example 5]
Measured Result: 5.5
//
Compound: Cc1onc(-c2ccccn2)c1COc1ccc(C(=O)NC2CCOCC2)nn1 [Example 94]
Measured Result: 2.9
//
Compound: Cc1onc(-c2ccccc2)c1COc1ccc(NC(=O)C(C)C)nn1 [Example 20]
Measured Result: 7.9
//
Compound: CNC(=O)c1ccc(OCc2c(-c3cccc(F)c3)noc2C)nn1 [Example 50]
Measured Result: 4.1
//
Compound: CCOC(=O)c1ccc(OCc2c(-c3cccc(F)c3)noc2C)nn1 [Example 49]
Measured Result: 9.6
//
Compound: Cc1onc(-c2ccccc2)c1COc1ccc(NC(=O)C2CC2)nn1 [Example 21]
Measured Result: 5.3
//
Compound: Cc1onc(-c2ccc(F)cn2)c1COc1ccc(Cl)nn1 [Example 110]
Measured Result: 1.6
//
Compound: Cc1onc(-c2cccc(F)c2)c1COc1ccc(C(=O)NCCO)nn1 [Example 52]
Measured Result: 6.6
